# target-or-test-system: T1, TFAM (no MTS) (Homo sapiens, UniProt Q00059 43-246)
# T1 sequence: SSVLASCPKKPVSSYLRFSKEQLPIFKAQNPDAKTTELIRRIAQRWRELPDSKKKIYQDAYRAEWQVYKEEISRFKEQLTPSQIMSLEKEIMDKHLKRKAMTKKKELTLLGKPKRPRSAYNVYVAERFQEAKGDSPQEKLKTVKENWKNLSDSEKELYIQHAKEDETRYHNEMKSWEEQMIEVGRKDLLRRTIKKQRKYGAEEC
# assay-overview: fluorescence anisotropy; +UVC; Hill n 2.27±0.26; FP: 25 mM HEPES, 10 mM Mg(OAc)2, 25 mM NaOAc, 75 mM KOAc, pH 7.5, 1 nM DNA, TFAM 0-15 nM diluted on ice (read temperature not stated); AFM oligos: on ice, 2 min
# condition-label: protein: recombinant; label: 5' 6-FAM on strand 1; blunt
pKd: −log10 of the molar value.

[
  {
    "binder": "ND6_87 +UVC (dsDNA, UVC 1500 J/m2 photolesions (positions undefined)) DNA 1: TTCCTACACTATTAAAGTTTACCACAACCACCA DNA 2: TGGTGGTTGTGGTAAACTTTAATAGTGTAGGAA",
    "pKd": 8.12
  }
]
